# assayComment: Volume of distribution at steady state in Lewis rat at 3 mg/kg, iv
# Type: ADME, organism-based
# Parameters: dose 3 mg/kg, route intravenous
# conditions: in vivo, read-out: Vdss
measureName: Vd
Could you kindly put the unit after your number?

Which Vd is listed for CCCCCN1C(=O)C2(COc3cc4c(cc32)OCO4)c2ccccc21 (stereo unspecified) ? 35 L/kg

###

# assayComment: Permeability from basolateral to apical side in human Caco2 cells
# Assay type: ADME, cell-based
# conditions: Caco-2, read-out: permeability
# Papp B→A >= 10 ×10⁻⁶ cm/s gives Y, anything below gives N

Study these solved cases before continuing.
compound | discreteLabel
O=C1N(Cc2ccc(C(F)(F)F)cc2)c2ccccc2C1(O)c1ccc2c(c1)OCO2 (centres undefined) | N
CCCCCN1C(=O)C2(CCc3cc4c(cc32)OCO4)c2ccccc21 (centres undefined) | N
O=C1N(Cc2ccc(Cl)cc2)c2ccccc2C1(O)c1ccccc1 (centres undefined) | Y
CCCCCN1C(=O)C(C)(c2ccc3c(c2)OCO3)c2ccccc21 (centres undefined) | N
CCCCCN1C(=O)C2(COc3cc4c(cc32)OCO4)c2ccccc21 (centres undefined) | N

Please indicate if the recorded Papp B→A for CCCCCN1C(=O)C(N)(c2ccc3c(c2)OCO3)c2ccccc21 (centres undefined) meets or exceeds 10 ×10⁻⁶ cm/s. Y

Please indicate if the recorded Papp B→A for CCC(C)CCN1C(=O)C(O)(c2ccc3c(c2)OCO3)c2ccccc21 (centres undefined) meets or exceeds 10 ×10⁻⁶ cm/s. Y

Please indicate if the recorded Papp B→A for O=C1N(Cc2ccc(Cl)cc2)c2ccccc2C1(O)c1ccc2c(c1)OCO2 (centres undefined) meets or exceeds 10 ×10⁻⁶ cm/s. Y

Please indicate if the recorded Papp B→A for O=C1N(Cc2ccc3c(c2)OCO3)c2ccccc2C1(O)c1ccc2c(c1)OCO2 (centres undefined) meets or exceeds 10 ×10⁻⁶ cm/s. Y
